In this section we review reported log10 of IC50 values for a set of compounds.
Tested on: intracellular HBV DNA
MEASUREMENT_DESCRIPTION: Real-time PCR for intracellular HBV DNA in HepAD38 cells
Type: cell-based
COND: Hepatitis B virus, HePAD38, 65 h, 65 hours treatment
Experimental: HepAD38 cells were cultured in DMEM medium (Welgene) supplemented with 200 unit/mL penicillin, 200 μg/mL streptomycin, and 10% FBS. During maintenance and passage, the cells were cultured together with 0.4 μg/mL tetracycline. Two days before the treatment with compounds for inducing HBV replication was started, the medium was replaced with a tetracycline-free complete growth medium. […]
Would you kindly interpret these values as log10 of IC50 expressed in µM?

// known answers, use as guide
>>> df
                                smiles_code  parameter_measured  reported_result
0  COc1ncc(N(Cc2cc(C(F)(F)F)[nH]n2)C(=O)Nc2ccnc(C(F)F)c2)cn1       log10 of IC50            -1.39
1  COC12CC(N(Cc3cc(C(F)(F)F)[nH]n3)C(=O)Nc3ccc(F)c(C#N)c3)(C1)C2       log10 of IC50            -1.44
2  COc1ncc(N(Cc2cc(C(F)(F)F)[nH]n2)C(=O)Nc2cc(C)c(F)c(Cl)c2)cn1       log10 of IC50            -1.43
3  COc1cc(N(Cc2n[nH]c3c2CCCC3)C(=O)Nc2ccc(F)c(Cl)c2)ccn1       log10 of IC50            -1.89

Identify log10 of IC50 associated with the compound COc1ncc(N(Cc2cc(C(F)F)[nH]n2)C(=O)Nc2cccc(C(F)F)n2)cn1 -0.15

Provide measured log10 of IC50 value, entry: COc1ccc(N(Cc2n[nH]c(C(F)(F)F)c2CC2OC(C)(C)C(C)(C)O2)C(=O)Nc2ccc(F)c(Cl)c2)cn1 -1.47

----------
MEASUREMENT_DESCRIPTION: Cell viability assay (EZ-Cytox), cytotoxicity
Type: cell-based
COND: human, HepAD38 cells
Procedure: HepAD38 cells were cultured for 2 days in Dulbecco's Modified Eagle's medium (Welgene, LM001-05) supplemented with 10% FBS without tetracycline. […] After 65 hours of treatment, viability was measured using EZ-Cytox cell viability assay kit (Daeil Lab Service) according to the manufacturer's instructions. The absorbance was measured at 450 nm using a spectrophotometer (Spark, Tecan).
compounds and their reported CC50 at 65 h

In [3]: df
Out[3]:
                                   compound  parameter_measured  reported_result
0  COC12CC(N(Cc3cc(C(F)(F)F)[nH]n3)C(=O)Nc3ccc(F)c(C(F)F)c3)(C1)C2 [Example 213]        CC50 at 65 h         > 100 µM

Now let's try a different one.
Fill in reported CC50 at 65 h for this entry: COc1ncc(N(Cc2cc(C(F)(F)F)[nH]n2)C(=O)Nc2cccc(C(F)(F)F)n2)cn1 [Example 225] > 100 µM

----------
In this section we review reported inhibition at 30 µM values for a set of compounds.
ASSAYED_TARGET: Protein (Hepatitis B virus genotype D subtype ayw, UniProt P03146)
Sequence (P03146 whole entry): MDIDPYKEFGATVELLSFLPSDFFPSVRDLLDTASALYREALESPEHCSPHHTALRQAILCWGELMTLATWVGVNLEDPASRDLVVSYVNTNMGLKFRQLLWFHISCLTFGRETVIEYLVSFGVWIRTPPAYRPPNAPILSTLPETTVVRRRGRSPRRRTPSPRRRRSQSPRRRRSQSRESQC
MEASUREMENT_DESCRIPTION: Protein inhibition rate / EC50 (Table 1, no method described)
Assay type: biochemical
Write it as a number; the unit % goes unstated.

Sample records with inhibition at 30 µM:
In [3]: df
Out[3]:
                                   compound                            assayed_target  reported_result
0  COc1ccc(N(Cc2cc(C)nn2C)C(=O)Nc2ccc(F)c(Cl)c2)cc1  Protein (Hepatitis B virus genotype D subtype ayw, UniProt P03146)             89.9
1  COc1ccc(N(Cc2nn(C)c3c2CCCC3)C(=O)Nc2ccc(F)c(Cl)c2)cc1  Protein (Hepatitis B virus genotype D subtype ayw, UniProt P03146)             91.6
2  COc1ccc(N(Cc2n[nH]c3c2CC(O)CC3)C(=O)Nc2ccc(F)c(Cl)c2)cn1 (stereo not shown)  Protein (Hepatitis B virus genotype D subtype ayw, UniProt P03146)               90

Give the measured inhibition at 30 µM for COc1ccc(N(Cc2n[nH]c3c2CCCO3)C(=O)Nc2ccc(F)c(Cl)c2)cn1 90.5
